Assay: Growth inhibition of HEK293 cells at 20 uM after 72 hrs by PrestoBlue staining based fluorescence assay relative to control
Assay type: cell-based
Settings: human, read-out: GI
For each record, write down the corresponding inhibition at 72 h, 20 µM.
Record the value in %, omitting the unit from your answer.

Which inhibition at 72 h, 20 µM is reported for this compound? C[C@H]1[C@H](OC(=O)CCC(=O)O)O[C@@H]2O[C@@]3(C)CC[C@H]4[C@H](C)CC[C@@H]1[C@@]24OO3 [ARTESUNATE]
75

Entry to check: C[C@H]1[C@@H](O)O[C@@H]2O[C@@]3(C)CC[C@H]4[C@H](C)CC[C@@H]1[C@@]24OO3
50

###

System: MDA-MB-231
Assay: Growth inhibition of human MDA-MB-231 cells after 72 hrs by alamar blue assay
Format: functional, cell-based
Settings: MDA-MB-231, 72 h
endpoint: pIC50
On this scale, pIC50 is minus log10 of a concentration expressed in M (mol/L).

What measured pIC50 is associated with CC(=O)O[C@H]1C=C[C@H](Cl)[C@@](O)(COC(=O)c2ccccc2)[C@@H]1O on MDA-MB-231?
6.92

Entry to check: O=Cc1cccc(O)c1 [3-HYDROXYBENZALDEHYDE]
5.09

Entry to check: O=C(OCc1cc(O)ccc1O)c1ccccc1
7.05

Entry to check: CC(=O)O[C@@H]1C=C[C@H](O)[C@@H](OC(C)=O)/C1=C/OC(=O)c1ccccc1
6.54

Entry to check: CC(=O)OC(OC(=O)c1ccccc1)C1=CC=C[C@H](O)[C@H]1OC(C)=O (stereo not given in full)
6.54

Entry to check: CC(=O)O[C@@H]1C=C[C@H](O)[C@@H](O)/C1=C/OC(=O)c1ccccc1
7.52

Entry to check: CC(=O)O[C@H]1C=C[C@H](O)[C@@](O)(COC(=O)c2ccccc2)[C@@H]1OC(C)=O
5.57

Entry to check: CC(=O)O[C@@H]1C=C[C@@H](OC(=O)c2ccccc2)[C@@](O)(COC(=O)c2ccccc2)[C@H]1OC(C)=O
5.68

Entry to check: CC(=O)O[C@H]1C=C[C@H](Cl)[C@](O)(COC(=O)c2ccccc2)[C@@H]1O
6.35

Entry to check: O=C1C=C/C(=C/[C@@H](O)COC(=O)c2ccccc2)O1
6.62

###

System: Plasmodium falciparum
Assay: Antimalarial activity against chloroquine-sensitive Plasmodium falciparum 3D7 infected in human RBC after 72 hrs by DAPI staining based confocal microscopic method
Type: functional
Details: 3D7, 72 h
endpoint: IC50 (nM)
Record the value in nM, omitting the unit from your answer.

Which IC50 is reported for this molecule? C[C@H]1[C@H](OC(=O)CCC(=O)O)O[C@@H]2O[C@@]3(C)CC[C@H]4[C@H](C)CC[C@@H]1[C@@]24OO3 [ARTESUNATE]
0.48

Entry to check: CC(=O)O[C@H](/C=C1/C=CC(=O)O1)COC(=O)c1ccccc1
6670

Entry to check: C[C@H]1[C@@H](O)O[C@@H]2O[C@@]3(C)CC[C@H]4[C@H](C)CC[C@@H]1[C@@]24OO3 [ARTENIMOL]
0.11

Entry to check: CC(=O)OC(OC(=O)c1ccccc1)C1=CC=C[C@H](O)[C@H]1OC(C)=O (some centres not stated)
1200

Entry to check: CC(=O)O[C@@H]1C=C[C@H](O)[C@@H](O)/C1=C/OC(=O)c1ccccc1
200

Entry to check: COc1ccc(C[C@H](N)C(=O)N[C@H]2[C@@H](O)[C@H](n3cnc4c(N(C)C)ncnc43)O[C@@H]2CO)cc1 [PUROMYCIN]
23

Entry to check: CC(=O)O[C@@H]1C=C[C@H](O)[C@@H](OC(C)=O)/C1=C/OC(=O)c1ccccc1
620

###

For each record, write down the corresponding selectivity ratio.
Assay: Selectivity index, ratio of IC50 for HEK293 cells to IC50 for chloroquine-sensitive Plasmodium falciparum 3D7 infected in human RBC
Assay type: toxicity
Settings: HEK293 cells versus Plasmodium falciparum 3D7 in human RBC, read-out: Ratio IC50
Reply with the value as a number alone.

Which selectivity ratio is reported for this compound? CC(=O)O[C@@H]1C=C[C@H](O)[C@@H](O)/C1=C/OC(=O)c1ccccc1
14

Entry to check: COc1ccc(C[C@H](N)C(=O)N[C@H]2[C@@H](O)[C@H](n3cnc4c(N(C)C)ncnc43)O[C@@H]2CO)cc1
15.9

Entry to check: CC(=O)O[C@@H]1C=C[C@H](O)[C@@H](OC(C)=O)/C1=C/OC(=O)c1ccccc1
4

Entry to check: COc1ccc2nc3cc(Cl)ccc3c(Nc3cc(CN4CCCC4)c(O)c(CN4CCCC4)c3)c2n1
494

Entry to check: CC(=O)OC(OC(=O)c1ccccc1)C1=CC=C[C@H](O)[C@H]1OC(C)=O (stereo not given in full)
3

###

For each record, write down the corresponding selectivity ratio at 20 µM.
Test: Selectivity index, ratio of growth inhibitory effect against HEK293 cells at 20 uM to IC50 for chloroquine-sensitive Plasmodium falciparum 3D7 infected in human RBC
Assay type: toxicity, cell-based
Conditions: HEK293 cells versus Plasmodium falciparum 3D7 in human RBC, read-out: Selectivity Index

Which selectivity ratio at 20 µM is reported for this molecule? C[C@H]1[C@@H](O)O[C@@H]2O[C@@]3(C)CC[C@H]4[C@H](C)CC[C@@H]1[C@@]24OO3 [ARTENIMOL]
> 22

Entry to check: C[C@H]1[C@H](OC(=O)CCC(=O)O)O[C@@H]2O[C@@]3(C)CC[C@H]4[C@H](C)CC[C@@H]1[C@@]24OO3 [ARTESUNATE]
> 22
